Experiment: DPPH• free radical scavenging assay
Conditions: concentration required to scavenge 50% of the DPPH; 30 min in the dark
Outcome measure: IC50

# example entries with known answers
INSERT INTO assay_data (molecule, outcome_measure, result) VALUES
  ('COc1ccccc1S(=O)(=O)Nc1ccc2c(c1)C(CC(=O)NC(CO)C(N)=O)NC(=O)N2CCCN (stereo not shown)', 'IC50', '> 1000 µM'),
  ('CC(C)CCN1C(=O)NC(CC(=O)NC(CCCN)C(N)=O)c2cc(NC(=O)CCc3cccnc3)ccc21 (stereo not shown)', 'IC50', '> 1000 µM');

Would you mind giving IC50 for every molecule in the list below?
1. NCCCN1C(=O)NC(CC(=O)NC(CO)C(N)=O)c2cc(NC(=O)CCc3cccnc3)ccc21 (stereo not shown)
2. O=C1O[C@H]([C@@H](O)CO)C(O)=C1O [Vc, ascorbic acid, reference compound]
3. NCCCN1C(=O)NC(CC(=O)NC(CO)C(N)=O)c2cc(NC(=O)c3cccnc3)ccc21.O=C(O)C(F)(F)F (stereo not shown)

1: > 1000 µM; 2: 22.5 µM; 3: > 1000 µM

Would you mind giving IC50 for every molecule in the list below?
1. NCCCN1C(=O)NC(CC(=O)NC(CO)C(N)=O)c2cc(NC(=O)c3ccccn3)ccc21 (stereo not shown)
2. CC(C)(NC(=O)CC1NC(=O)N(Cc2ccccc2)c2ccc(NC(=O)COc3ccccc3)cc21)C(N)=O (stereo not shown)
3. NCCCN1C(=O)NC(CC(=O)NC(CO)C(N)=O)c2cc(NC(=O)COc3ccccc3)ccc21.O=C(O)C(F)(F)F (stereo not shown)
4. CN1C(=O)NC(CC(N)=O)c2cc(NC(=O)COc3ccccc3)ccc21 (stereo not shown)
5. NCCCN1C(=O)NC(CC(=O)NC(CO)C(N)=O)c2cc(NC(=O)c3ccccc3)ccc21 (stereo not shown)
6. NCCCN1C(=O)NC(CC(=O)NC(CO)C(N)=O)c2cc(NC(=O)c3ccncc3)ccc21 (stereo not shown)

1. > 1000 µM
2. 951 µM
3. > 1000 µM
4. > 1000 µM
5. > 1000 µM
6. > 1000 µM

Would you mind giving IC50 for every molecule in the list below?
1. NCCCN1C(=O)NC(CC(=O)NC(CO)C(N)=O)c2cc([N+](=O)[O-])ccc21 (stereo not shown)
2. CN1C(=O)NC(CC(N)=O)c2cc(NC(=O)c3cccnc3)ccc21 (stereo not shown)
3. CN1C(=O)N(S(=O)(=O)c2ccccc2F)C(CC(N)=O)c2cc(NS(=O)(=O)c3ccccc3F)ccc21 (stereo not shown)
4. NCCCN1C(=O)NC(CC(=O)NC(CO)C(N)=O)c2cc(NC(=O)c3ccc(F)cc3)ccc21 (stereo not shown)
5. Cc1ccc(C(=O)Nc2ccc3c(c2)C(CC(=O)NC(CO)C(N)=O)NC(=O)N3CCCN)cc1 (stereo not shown)
6. NCCCN1C(=O)NC(CC(=O)NC(CO)C(N)=O)c2cc(N)ccc21 (stereo not shown)
7. COc1ccccc1S(=O)(=O)Nc1ccc2c(c1)C(CC(N)=O)NC(=O)N2C (stereo not shown)

["> 1000 µM", "> 1000 µM", "> 1000 µM", "> 1000 µM", "387 µM", "58 µM", "> 1000 µM"]

Report IC50 for NCCCN1C(=O)NC(CC(=O)NC(CO)C(N)=O)c2cc(NC(=O)Cc3cccs3)ccc21 (stereo not shown) please. 557 µM

----------
System: breast cancer cells (MDA-MB-231)
Assay: MTT cytotoxicity assay, MDA-MB-231
Assay type: cell-based, human
Conditions: Homo sapiens, 72-h incubation
Please respond with reported pIC50 for every item in the list.
Answers are plain numbers, as −log10 of the molar value.

# example entries with known answers
INSERT INTO measurements (compound, numeric_readout) VALUES
  ('NCCCN1C(=O)NC(CC(=O)NC(CO)C(N)=O)c2cc(NC(=O)c3ccc(F)cc3)ccc21 (stereo not shown) [CA1-d]', 4.07),
  ('NCCCN1C(=O)NC(CC(=O)NC(CO)C(N)=O)c2cc([N+](=O)[O-])ccc21 (stereo not shown) [CA1-6]', 4.09),
  ('NCCCN1C(=O)NC(CC(=O)NC(CO)C(N)=O)c2cc(NC(=O)Cc3cccs3)ccc21 (stereo not shown) [CA1-i]', 4.05),
  ('NCCCN1C(=O)NC(CC(=O)NC(CO)C(N)=O)c2cc(NC(=O)c3cccnc3)ccc21.O=C(O)C(F)(F)F (stereo not shown) [CA1-e]', 4.07),
  ('COc1ccccc1S(=O)(=O)Nc1ccc2c(c1)C(CC(N)=O)NC(=O)N2C (stereo not shown) [CA7-a]', 4.06);

Would you mind giving pIC50 for every compound in the list below?
1. NCCCN1C(=O)NC(CC(=O)NC(CO)C(N)=O)c2cc(NC(=O)COc3ccccc3)ccc21.O=C(O)C(F)(F)F (stereo not shown) [CA1-g]
2. COc1ccccc1S(=O)(=O)Nc1ccc2c(c1)C(CC(=O)NC(CO)C(N)=O)NC(=O)N2CCCN (stereo not shown) [CA1-j]

1: 4.09; 2: 4.12

Find the measured pIC50: item NCCCN1C(=O)NC(CC(=O)NC(CO)C(N)=O)c2cc(NC(=O)CCc3cccnc3)ccc21 (stereo not shown) [CA1-h] , target or system breast cancer cells (MDA-MB-231). 4.08

----------
Test system: ovarian cancer cells (A2780)
Experiment: MTT cytotoxicity assay, A2780
Format: cell-based, human
Conditions: Homo sapiens, A2780, 72 h, 72-h incubation
Protocol: The above cells were tested for cytotoxicity to identify the most promising antitumor drug among the synthesized quinazolinone derivatives. An MTT assay was used to evaluate the in vitro cytotoxicity of the new compounds. The MTT assay depends on the reduction of soluble 3-([…])-2,5-diphenyl-tetrazolium bromide (MTT) into a blue purple formazan product, mainly by mitochondrial reductase activity inside living cells. […]
pIC50: −log10 of the molar value.
Outcome measure: pIC50

INSERT INTO measurements (molecule, outcome_measure, result) VALUES
  ('CN1C(=O)NC(CC(N)=O)c2cc(NC(=O)c3cccnc3)ccc21 (stereo not shown) [CA6-a]', 'pIC50', '< 4.00'),
  ('NCCCN1C(=O)NC(CC(=O)NC(CO)C(N)=O)c2cc(NC(=O)c3cccnc3)ccc21.O=C(O)C(F)(F)F (stereo not shown) [CA1-e]', 'pIC50', '> 4.40'),
  ('NCCCN1C(=O)NC(CC(=O)NC(CO)C(N)=O)c2cc(NC(=O)c3ccccn3)ccc21 (stereo not shown) [CA1-f]', 'pIC50', '< 4.00');

Attention now shifts to the item below.
Report pIC50 for Cc1ccc(C(=O)Nc2ccc3c(c2)C(CC(=O)NC(CO)C(N)=O)NC(=O)N3CCCN)cc1 (stereo not shown) [CA1-c] please. < 4.00

----------
System: breast cancer cells (MDA-MB-231)
Experiment: MTT cytotoxicity assay, MDA-MB-231
Type: cell-based, human
Settings: Homo sapiens, 72-h incubation
Protocol: The above cells were tested for cytotoxicity to identify the most promising antitumor drug among the synthesized quinazolinone derivatives. An MTT assay was used to evaluate the in vitro cytotoxicity of the new compounds. The MTT assay depends on the reduction of soluble 3-([…])-2,5-diphenyl-tetrazolium bromide (MTT) into a blue purple formazan product, mainly by mitochondrial reductase activity inside living cells. […]
Please respond with reported pIC50 for every item in the list.
Give bare numbers, as −log10 of the molar value.

# example entries with known answers
INSERT INTO measurements (compound, numeric_readout) VALUES
  ('CC(C)(NC(=O)CC1NC(=O)N(Cc2ccccc2)c2ccc(NC(=O)COc3ccccc3)cc21)C(N)=O (centres unmarked)', 4.06),
  ('NCCCN1C(=O)NC(CC(=O)NC(CO)C(N)=O)c2cc(NC(=O)c3ccccc3)ccc21 (centres unmarked)', 4.12),
  ('Cc1ccc(C(=O)Nc2ccc3c(c2)C(CC(=O)NC(CO)C(N)=O)NC(=O)N3CCCN)cc1 (centres unmarked)', 4.03),
  ('NCCCN1C(=O)NC(CC(=O)NC(CO)C(N)=O)c2cc(N)ccc21 (centres unmarked)', 4.05),
  ('CC(C)CCN1C(=O)NC(CC(=O)NC(CCCN)C(N)=O)c2cc(NC(=O)CCc3cccnc3)ccc21 (centres unmarked)', 4.07),
  ('NCCCN1C(=O)NC(CC(=O)NC(CO)C(N)=O)c2cc(NC(=O)c3ccncc3)ccc21 (centres unmarked)', 4.07);

Attention now shifts to the item below.
Report pIC50 for NCCCN1C(=O)NC(CC(=O)NC(CO)C(N)=O)c2cc(NC(=O)c3ccccn3)ccc21 (centres unmarked) please. 4.09

----------
System: ovarian cancer cells (A2780)
Test: MTT cytotoxicity assay, A2780
Type: cell-based, human
Conditions: Homo sapiens, A2780, 72 h, 72-h incubation
Please respond with reported IC50 for every item in the list.
Give bare numbers, in µM.

INSERT INTO results (compound, numeric_readout) VALUES
  ('COc1ccccc1S(=O)(=O)Nc1ccc2c(c1)C(CC(=O)NC(CO)C(N)=O)NC(=O)N2CCCN (stereo not shown)', 83.6);

Attention now shifts to the item below.
Report IC50 for NCCCN1C(=O)NC(CC(=O)NC(CO)C(N)=O)c2cc(NC(=O)c3ccc(F)cc3)ccc21 (stereo not shown) please. 88.3
